assay: folding enthalpy; higher = less favourable; fluorescence melt of hairpins on a sequencing array, two-state fit; conditions: sodium 0.088 M
Would you mind sorting the entries by folding enthalpy according to these classes? lo (below -30 kcal/mol), med (-30 kcal/mol to below -20 kcal/mol), hi (-20 kcal/mol or more)

item_sequence	label_value
GATCCTTTACAGGATC ((((((....))))))	lo

Q: Using the reported folding enthalpy, which band applies to GCGGGACGAAAGTCCGC (((.(((....)))))) ?
Result: med

Q: Using the reported folding enthalpy, which band applies to GATCGTTGGACGATC ((((((...)))))) ?
Result: lo

----------
assay: melting temperature; fluorescence melt of hairpins on a sequencing array, two-state fit, raised by 9.35 °C to match UV melts; conditions: sodium 0.088 M
Tm below 40 °C gives 0; Tm at or above it gives 1.

Known results for sequences:
item_sequence	label_value
GTGGAAGCGAAAGCTCAC (((..(((....))))))	1
GCCGTCGAAAGACAAGGC ((((((....)))..)))	1
GCACGCGAAAGCGTCTGC ((((((....)))..)))	1
CGCCCTCGGAAACGAGCG (((..(((....))))))	0
GCATCCGGAAACGGGTGC (((.(((....))).)))	1
CAGATGAAAATCTG (((((....)))))	1
GTCGCGCGAAAGCGAGAC (((.(((....))).)))	1
GGTTGACCGAAAGGTACC (((..(((....))))))	0

Q: Is it the case that GAGTCCGAAAGGATCCTC ((((((....)))..))) has Tm reaching or exceeding 40 °C?
Result: 0

Q: Is it the case that GTGACCGGAAACGGTTAC ((.((((....)))).)) has Tm reaching or exceeding 40 °C?
Result: 1

Q: Is it the case that GCACGACGAAAGTCTTGC (((.(((....))).))) has Tm reaching or exceeding 40 °C?
Result: 1

Q: Is it the case that GCTGCTCGAAAGAGTAGC (((.(((....))).))) has Tm reaching or exceeding 40 °C?
Result: 1

----------
assay: folding enthalpy; higher = less favourable; fluorescence melt of hairpins on a sequencing array, two-state fit; conditions: sodium 0.088 M
folding enthalpy below -20 kcal/mol gives no (0); folding enthalpy at or above it gives yes (1).

item_sequence	label_value
CGCGCGGAAACGCATGCG ((((((....)))..)))	no (0)
GATCGATCCTTCGATC ((((((....))))))	no (0)
CGAATCGGAAACGACTCG (((.(((....))).)))	no (0)
GATCAATAGTTTGATC ((((((....))))))	no (0)
GCGTGACGAAAGTCTCGC (((.(((....))).)))	no (0)
TGTAGGAAACTACA (((((....)))))	yes (1)
GCGTACGAAAGTAAGCGC ((((((....)))..)))	no (0)
GTTAGAGAAATCTAAC ((((((....))))))	no (0)
GTCAGTACGAAAGTAGAC (((..(((....))))))	yes (1)
GATCAACGCTTTGATC ((((((....))))))	no (0)

Kindly review the next sequence as well.
Q: Is it the case that GCATTACGAAAGTATTGC (((.(((....))).))) has folding enthalpy reaching or exceeding -20 kcal/mol?
Result: no (0)
